Value source: the supplement of paper PMC10567573

B1: SNAP91 (parent)
chain: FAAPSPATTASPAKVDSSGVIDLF

Variants of: B1
Experiment: protein stability index of a GFP-peptide fusion (GPS, HEK-293T) (PSI 1-6); higher = more stable;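 further: lentivirally expressed fusions sorted by FACS into six bins by GFP to DsRed ratio, PSI derived from sequencing read proportions per bin multiplied by bin number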
Details: c terminus: a fixed tail appended
variants and their reported protein stability index

record.sequence: FAAPSPATTASPKKVDSSGVIDLF
protein stability index: 3.05
//
record.sequence: FAAPIPATTASPAKVDSSGVIDLF
protein stability index: 1.95
//
record.sequence: FAAPSPATAASPAKVDSSGVIDLF
protein stability index: 3.02
//
record.sequence: FAAPSEATTASPAKVDSSGVIDLF
protein stability index: 3.08
//
record.sequence: FAAPSPATTRSPAKVDSSGVIDLF
protein stability index: 1.99
//
record.sequence: FAAPHPATTASPAKVDSSGVIDLF
protein stability index: 1.96
//
record.sequence: FAAPSPATTASPAKSDSSGVIDLF
protein stability index: 2.93
//
record.sequence: FAAPSPATTASPAKVDLSGVIDLF
protein stability index: 1.96
